- Tested on: A. pleuropneumoniae
- assayComment: In vitro antibacterial activity, broth microdilution MIC (CLSI M31-A2)
- Format: cell-based, Actinobacillus pleuropneumoniae
- assayContext: Actinobacillus pleuropneumoniae, A. pleuropneumoniae strain 10895-2; read-out: MIC
- Procedure: Hereinafter, a description is made of an evaluation method for the compound. The compound was measured for its in vitro antibacterial activity by a broth microdilution method in accordance with a CLSI method (formerly NCCLS method, […]-A2) (Performance Standards for Antimicrobial Disk and Dilution Susceptibility Tests for Bacteria Isolated from Animals; Approved Standard-Second Edition NCCLS […]-A2 Vol. 22 No. 6 2002). […]
This section presents molecules with their documented MIC values.
Mention the unit after the number when you answer.

The following molecules have reported results that may help.
>  <molecule>
CC[C@H]1OC(=O)C[C@@H](O)[C@H](C)[C@@H](O[C@@H]2O[C@H](C)[C@@H](O[C@H]3C[C@@](C)(O)[C@@H](O)[C@H](C)O3)[C@H](N(C)C)[C@H]2O)[C@@H](CC=O)C[C@@H](C)C(=O)/C=C/C(C)=C/[C@@H]1CO[C@@H]1O[C@H](C)[C@@H](O)[C@@H](OC)[C@H]1OC

>  <MIC>
16 µg/mL

$$$$
>  <molecule>
CO[C@@H]1[C@@H](O[C@@H]2O[C@H](C)[C@@H](O[C@H]3C[C@@](C)(O)[C@@H](OC(=O)CC(C)C)[C@H](C)O3)[C@H](N(C)C)[C@H]2O)[C@@H](CC=O)C[C@@H](C)[C@@H](O)/C=C/C=C/C[C@@H](C)OC(=O)C[C@H]1OC(C)=O

>  <MIC>
32 µg/mL

$$$$
>  <molecule>
CO[C@@H]1C(OC2O[C@@H](C)C(O)C(N(C)C)C2O)[C@@H](CC=O)C[C@@H](C)[C@@H](OC(C)=O)/C=C/[C@@H](N(C)CCCc2ccnc3ccccc23)[C@@H](O)C[C@@H](C)OC(=O)C[C@H]1OC(C)=O (stereo partly shown)

>  <MIC>
4 µg/mL

$$$$

# context switch: different molecule, same MIC
Looking up CC[C@H]1OC(=O)C[C@@H](O)[C@H](C)[C@@H](O[C@@H]2O[C@H](C)[C@@H](O)[C@H](N(C)C)[C@H]2O)[C@@H](CCN2C[C@H](C)C[C@H](C)C2)C[C@@H](C)C(=O)/C=C/C(C)=C/[C@@H]1CO[C@@H]1O[C@H](C)[C@@H](O)[C@@H](OC)[C@H]1OC , I found its MIC recorded as 16 µg/mL

###

- System: H. parasuis
- assayComment: In vitro antibacterial activity, broth microdilution MIC (CLSI M31-A2)
- Type: cell-based, Haemophilus parasuis
- assayContext: Glaesserella parasuis, H. parasuis strain 11510-1; read-out: MIC
- Procedure: Hereinafter, a description is made of an evaluation method for the compound. The compound was measured for its in vitro antibacterial activity by a broth microdilution method in accordance with a CLSI method (formerly NCCLS method, […]-A2) (Performance Standards for Antimicrobial Disk and Dilution Susceptibility Tests for Bacteria Isolated from Animals; Approved Standard-Second Edition NCCLS […]-A2 Vol. 22 No. 6 2002). […]
Items are presented alongside their recorded MIC.
# unit: µg/mL | format: bare number

Example entries begin here.
>  <compound>
CO[C@@H]1[C@@H](O[C@@H]2O[C@H](C)[C@@H](O[C@H]3C[C@@](C)(O)[C@@H](OC(=O)CC(C)C)[C@H](C)O3)[C@H](N(C)C)[C@H]2O)[C@@H](CC=O)C[C@@H](C)[C@@H](O)/C=C/C=C/C[C@@H](C)OC(=O)C[C@H]1OC(C)=O

>  <testedSystem>
H. parasuis

>  <unitsOfMeasure>
µg/mL

>  <MIC>
8

$$$$
>  <compound>
CO[C@@H]1C(OC2O[C@@H](C)C(O)C(N(C)C)C2O)[C@@H](CC=O)C[C@@H](C)[C@@H](OC(C)=O)/C=C/[C@@H](N(C)CCCc2ccnc3ccccc23)[C@@H](O)C[C@@H](C)OC(=O)C[C@H]1OC(C)=O (stereo partly shown)

>  <testedSystem>
H. parasuis

>  <unitsOfMeasure>
µg/mL

>  <MIC>
0.5

$$$$

Memo: CC[C@H]1OC(=O)C[C@@H](O)[C@H](C)[C@@H](O[C@@H]2O[C@H](C)[C@@H](O)[C@H](N(C)C)[C@H]2O)[C@@H](CCN2C[C@H](C)C[C@H](C)C2)C[C@@H](C)C(=O)/C=C/C(C)=C/[C@@H]1CO[C@@H]1O[C@H](C)[C@@H](O)[C@@H](OC)[C@H]1OC , reported MIC: 1

For reference, reported MIC for CC[C@H]1OC(=O)C[C@@H](O)[C@H](C)[C@@H](O[C@@H]2O[C@H](C)[C@@H](O[C@H]3C[C@@](C)(O)[C@@H](O)[C@H](C)O3)[C@H](N(C)C)[C@H]2O)[C@@H](CC=O)C[C@@H](C)C(=O)/C=C/C(C)=C/[C@@H]1CO[C@@H]1O[C@H](C)[C@@H](O)[C@@H](OC)[C@H]1OC stands at 4

Data origin: patent US20140011757A1
